Hey, just so you know, these numbers are from patent US20230372496A1.

Target: CRBN-DDB1 (Homo sapiens)
Sequence (Q96SW2 whole entry): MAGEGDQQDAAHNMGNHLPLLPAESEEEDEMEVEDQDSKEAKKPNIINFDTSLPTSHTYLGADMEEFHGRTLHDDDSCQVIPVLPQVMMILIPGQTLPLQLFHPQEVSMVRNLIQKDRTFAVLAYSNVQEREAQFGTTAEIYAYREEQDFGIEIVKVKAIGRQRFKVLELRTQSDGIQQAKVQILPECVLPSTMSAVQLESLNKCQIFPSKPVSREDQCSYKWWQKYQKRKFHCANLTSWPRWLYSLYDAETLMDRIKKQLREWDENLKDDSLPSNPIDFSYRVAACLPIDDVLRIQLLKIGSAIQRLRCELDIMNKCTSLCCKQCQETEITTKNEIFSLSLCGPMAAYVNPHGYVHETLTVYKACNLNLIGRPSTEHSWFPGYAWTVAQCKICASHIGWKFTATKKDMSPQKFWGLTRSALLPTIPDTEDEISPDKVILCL
Sequence (Q16531 whole entry partner): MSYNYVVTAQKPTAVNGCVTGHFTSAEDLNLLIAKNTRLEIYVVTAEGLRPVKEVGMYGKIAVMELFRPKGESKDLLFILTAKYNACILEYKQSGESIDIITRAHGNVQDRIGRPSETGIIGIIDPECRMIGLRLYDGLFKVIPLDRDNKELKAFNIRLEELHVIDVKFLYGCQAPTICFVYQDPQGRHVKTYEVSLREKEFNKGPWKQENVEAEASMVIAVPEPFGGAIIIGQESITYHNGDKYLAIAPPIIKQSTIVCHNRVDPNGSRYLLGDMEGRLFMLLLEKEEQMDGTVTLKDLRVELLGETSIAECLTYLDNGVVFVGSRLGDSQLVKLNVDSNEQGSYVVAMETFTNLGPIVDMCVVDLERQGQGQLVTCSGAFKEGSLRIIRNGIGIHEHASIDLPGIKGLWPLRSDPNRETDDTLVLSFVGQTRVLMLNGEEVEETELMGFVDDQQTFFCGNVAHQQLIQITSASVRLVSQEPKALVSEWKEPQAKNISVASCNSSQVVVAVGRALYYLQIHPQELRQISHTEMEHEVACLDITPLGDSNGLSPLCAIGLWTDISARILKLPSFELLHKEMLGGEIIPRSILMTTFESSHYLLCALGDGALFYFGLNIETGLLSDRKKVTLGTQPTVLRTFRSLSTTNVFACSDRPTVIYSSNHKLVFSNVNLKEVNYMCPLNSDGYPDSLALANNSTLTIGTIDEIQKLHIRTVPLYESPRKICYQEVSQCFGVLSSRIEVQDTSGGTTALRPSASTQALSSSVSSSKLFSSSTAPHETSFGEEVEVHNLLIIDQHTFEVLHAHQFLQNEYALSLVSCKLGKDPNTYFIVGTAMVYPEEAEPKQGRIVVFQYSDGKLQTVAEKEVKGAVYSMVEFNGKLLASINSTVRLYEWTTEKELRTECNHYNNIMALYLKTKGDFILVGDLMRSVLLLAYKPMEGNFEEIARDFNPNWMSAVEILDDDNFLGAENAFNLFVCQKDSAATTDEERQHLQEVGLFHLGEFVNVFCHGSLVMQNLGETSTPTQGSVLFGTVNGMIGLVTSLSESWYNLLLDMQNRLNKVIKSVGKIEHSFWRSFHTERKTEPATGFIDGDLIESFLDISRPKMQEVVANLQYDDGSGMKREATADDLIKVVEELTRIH
Assay: CRBN FP binding assay (fluorescence polarization)
Conditions: 150 nM CRBN-DDB1, 5 nM Alexa-647 probe; class symbols; read-out: FP CRBN_DDB1.3 ka
# key: entry, value: Kd
reported endpoint: Kd

>>> reported_result("O=C1CCC(N2C(=O)c3cccc4c(C5CCN(CC(=O)N6CC(c7nc8ccc(-c9n[nH]c%10cc%11c(cc9%10)CN(Cc9ccccc9)C(=O)N%11)cc8o7)C6)CC5)ccc2c34)C(=O)N1 (centres unmarked)")
"1 to 10 µM"
>>> reported_result("O=C1CCC(N2C(=O)C3CCCc4c(C5CCN(CCCC(=O)N6CC(c7nc8ccc(-c9n[nH]c%10cc%11c(cc9%10)CN(Cc9ccccc9)C(=O)N%11)cc8o7)C6)CC5)ccc2c43)C(=O)N1 (centres unmarked)")
"1 to 10 µM"

###

Target: NSP3 UBL2_PLpro-HA-HiBiT (Severe acute respiratory syndrome coronavirus 2, UniProt P0DTC1)
Assay: NSP3 UBL2_PLpro-HA-HiBiT degradation assay (cellular) in 293T cells
Format: cell-based, Severe acute respiratory syndrome Coronavirus 2 (Sars-CoV-2)
Conditions: 6.0 hours, read-out: HiBiT-Degradation 293T.234 NSP3_PLpro 6.0 hours (DC50)
reported endpoint: DC50

>>> reported_result("CC(c1cccc2c(C#CC3CCN(C(=O)CN4CCC(c5ccc6c7c(cccc57)N(C5CCC(=O)NC5=O)C6=O)CC4)CC3)cccc12)N1CCC(C(=O)NCc2cccc(F)c2)CC1 (stereo not shown) [Compound 105]")
"> 10 µM"
>>> reported_result("CC(c1ccc(C#CC2CCN(C(=O)CN3CCC(c4ccc5c6c(cccc46)N(C4CCC(=O)NC4=O)C5=O)CC3)CC2)c2ccccc12)N1CCC(C(=O)NCc2cccc(F)c2)CC1 (stereo not shown) [Compound 103]")
"> 10 µM"
>>> reported_result("CC(c1ccc(C#CC2CCN(C(=O)CN3CCC(c4ccc5c6c(cccc46)C(=O)N5C4CCC(=O)NC4=O)CC3)CC2)c2ccccc12)N1CCC(C(=O)NCc2cccc(F)c2)CC1 (stereo not shown) [Compound 102]")
"> 10 µM"
>>> reported_result("CC(c1cccc2c(C#CC3CCN(C(=O)CN4CCC(c5ccc6c7c(cccc57)C(=O)N6C5CCC(=O)NC5=O)CC4)CC3)cccc12)N1CCC(C(=O)NCc2cccc(F)c2)CC1 (stereo not shown) [Compound 104]")
"> 10 µM"

###

Molecular target: CRBN-DDB1 (Homo sapiens)
Test: CRBN FP binding assay (fluorescence polarization)
Settings: 150 nM CRBN-DDB1, 5 nM Alexa-647 probe, 1.5 h room temperature; numeric bounds; read-out: FP CRBN_DDB1.3 ka
pKd: −log10 of the molar value.
# key: entry, value: pKd
reported endpoint: pKd

>>> reported_result("CNC(=O)N1CCc2c(c(N3CCCc4cc(-c5cnn(C)c5)c(C(F)F)cc43)nn2C2CCN(C(=O)CCCCCCCCN3CCC(Nc4ccc5c6c(cccc46)C(=O)N5C4CCC(=O)NC4=O)CC3)CC2)C1 (centres unmarked)")
"> 8.00"
>>> reported_result("CNC(=O)N1CCc2c(c(N3CCCc4cc(-c5cnn(C)c5)c(C(F)F)cc43)nn2C2CCN(C(=O)CCCCCCCCN3CCC(c4ccc5c6c(cccc46)C(=O)N5C4CCC(=O)NC4=O)CC3)CC2)C1 (centres unmarked)")
"> 8.00"
